The reported numbers originate from patent US20140294826A1.

- TARGET ENTITY: Shiga toxin 1 (Stx1) (Escherichia coli O157:H7) (UniProt P08026)
- Sequence (P08026 23-315): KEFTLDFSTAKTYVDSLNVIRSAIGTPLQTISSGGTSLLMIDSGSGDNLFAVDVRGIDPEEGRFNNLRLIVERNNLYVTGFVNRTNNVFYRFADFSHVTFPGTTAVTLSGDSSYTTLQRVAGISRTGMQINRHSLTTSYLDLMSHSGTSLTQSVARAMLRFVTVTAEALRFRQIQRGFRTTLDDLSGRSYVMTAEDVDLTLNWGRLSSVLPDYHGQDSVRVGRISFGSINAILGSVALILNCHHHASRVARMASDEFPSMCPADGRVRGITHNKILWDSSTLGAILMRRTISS
- TEST PROTOCOL: dilution ELISA, HRP-anti-E-tag
PROPERTY NAME: EC50

Stx2-A6 (VHH) VHH: QVQLVESGGGLVQPGGSLKLSCAASGFTLADYVTVWFRQAPGKSREGVSCISSSRGTPNYADSVKGRATVSRNNANNTVYLQMNGLKPDDTAIYYCAAIRPARLRAYRECLSSQAEYDYWGQGTQVTVSS : > 1000 nM

Alright, here's another binder for you.
Lookup: Which EC50 is reported for this binder? Stx2-D10 (VHH) VHH: QVQLVETGGLVQAGGSLRLSCAASGVPFSDYTMAWFRQAPGKEREVVARITWRGGGPYYGNSGNGRFAISRDIAKSMVYLHMDSLKPEDTAVYYCAASRLRPALASMASDYDYWGQGTQVSVSS
Found: > 1000 nM
